Examples of compounds with documented TGI follow.
Test system: HCC-2998 colon
MEASUREMENT_PROTOCOL: NCI tumour cell line growth inhibition, 48 h

Check out these entries, answers already filled in.
[[record]]
compound = "CCOc1ccc(N/C(=C(/C(Cl)=C(/Cl)Nc2ccccc2)[N+](=O)[O-])n2nnc3ccccc32)cc1"
attribute_measured = "TGI"
endpoint_result = "> 100 µM"

[[record]]
compound = "COc1cc2nccc(Oc3ccc(NC(=O)NC4CC4)c(Cl)c3)c2cc1C(N)=O"
attribute_measured = "TGI"
endpoint_result = "> 100 µM"

[[record]]
compound = "O=C1C(C(O)(C(F)(F)Cl)C(F)(F)Cl)CCCC1C(O)(C(F)(F)Cl)C(F)(F)Cl (configuration not stated)"
attribute_measured = "TGI"
endpoint_result = "> 10 µM"

[[record]]
compound = "Nc1nc2c(ncn2C2CCC(CO)O2)c(=O)n1C(=O)c1ccccc1 (configuration not stated)"
attribute_measured = "TGI"
endpoint_result = "> 100 µM"

[[record]]
compound = "COc1ccc(N=C2S/C(=N\\C(=Nc3ccccc3)SCc3ccccc3)N(c3ccccc3)C2=Nc2ccc(OC)cc2)cc1"
attribute_measured = "TGI"
endpoint_result = "> 100 µM"

[[record]]
compound = "Cc1ccc(S(=O)(=O)CN2C(=O)C(c3ccccc3)(c3ccccc3)C23OC(c2ccc(Cl)cc2)=CC3=O)cc1 (configuration not stated)"
attribute_measured = "TGI"
endpoint_result = "> 10 µM"


# lookup: TGI of CCOc1ccc2nc3nc(=O)[nH]c(C)c3c(NCCCN(CC)CC)c2c1
> 100 µM

Would you kindly repeat that for COC(=O)c1c(C)cccc1C1CN=NC12Cc1ccccc1C2=O (configuration not stated) ?
> 100 µM

Then NC(=S)N/N=C/c1nccc2ccccc12 ?
> 100 µM

Lookup CC[C@H](NC(=O)[C@H]1CCCCN1C)C(=O)N(C)[C@H](C[C@@H](OC(C)=O)c1nc(C(=O)N[C@@H](Cc2ccccc2)C[C@H](C)C(=O)O)cs1)C(C)C
> 14.3 µM

Item: COc1ccc(NC(=S)N/N=C\c2ccc(NC(C)=O)cc2)cc1
> 100 µM

Let us now turn to COc1ccc(/C=C(/C(=O)N2CCN(c3ccccc3)CC2)c2cc(OC)c(OC)c(OC)c2)cc1N
> 100 µM

Do the same for Nc1ccccc1Nc1ccccc1C(=O)[O-].Nc1ccccc1Nc1ccccc1C(=O)[O-].[Zn+2] please
> 100 µM

What would you report for CCN(CC)C(=O)Cn1c(-c2ccccc2)cc2ccccc21 ?
> 100 µM

// repeat for COC(=O)C(Cc1nc2ccccc2[nH]c1=O)/C(=N\NC(C)(C)C)C(=O)Nc1c(C)cc(Br)cc1C (configuration not stated) and report
> 100 µM

// repeat for N#CC(N)c1ccc(OCCCCCCCCCCOc2ccc(C(N)C#N)cc2)cc1 (configuration not stated) and report
> 100 µM

Input FC(F)(F)c1ccc(Cc2nc3cc4ccccc4cc3[nH]2)cc1
> 100 µM

Record: COC(=O)[C@@H](C)C[C@H](Cc1cn(C)c2ccccc12)NC(=O)c1csc([C@@H](C[C@H](C(C)C)N(C)C(=O)[C@@H](NC(=O)[C@H]2CCCCN2C)C(C)C)OC(C)=O)n1
> 16.7 µM

What do you have for CC(C)(C)N1CCC1CN (configuration not stated) ?
> 100 µM

What do you get for COc1ccc(OC)c(CSc2ccc(OC)c(OC)c2)c1 ?
> 100 µM

Repeat with CCCCNc1nc2ccccc2c2c1ncn2CC(C)C
> 100 µM

Query S=C(NNC1=NCCCCN1)Nc1ccc(Cl)cc1 next
> 100 µM

----------
Listed below: TGI values for each entry.
Test system: RPMI-8226 leukemia
MEASUREMENT_PROTOCOL: NCI tumour cell line growth inhibition, 48 h

Known results for compounds:
[[record]]
compound = "CC12OOC(c3ccccc31)c1c2ccc2ccccc12 (stereo not drawn)"
attribute_measured = "TGI"
endpoint_result = "6.24 µM"

[[record]]
compound = "Cc1ccc2c(=O)cc(Cc3cccs3)[nH]c2n1"
attribute_measured = "TGI"
endpoint_result = "> 100 µM"


For the next question, use this compound.
Quick one: TGI for O=C1C(Cl)N(c2cccc(Cl)c2)C1c1c[nH]c2ccccc12 (stereo not drawn) ?
> 100 µM

----------
Tested on: UACC-62 melanoma
MEASUREMENT_PROTOCOL: NCI tumour cell line growth inhibition, 48 h
*1 amine or outer side, *2 acyl side, *3 side chain or, on linkers, in order; H or OH if unused. Where a SMILES comes first, the peptide text is derived from it. [ ]: non-standard residue; d: D form. The star is where a group is joined. ξ: configuration not given here. X27 = O=C([C@H]1CCC[C@H]1N[*:1])[*:2]; ξW = NC(Cc1c[nH]c2ccccc12)C(=O)O; ξF = NC(Cc1ccccc1)C(=O)O; Boc = CC(C)(C)OC(=O)*; ξK = NCCCCC(N)C(=O)O; ξT = CC(O)C(N)C(=O)O; tBu = CC(C)(C)*
Entries and their TGI

Example results:
[[record]]
compound = "CC(OC(C)(C)C)C1NC(=O)C(CCCCNC(=O)OC(C)(C)C)NC(=O)C(Cc2c[nH]c3ccccc23)NC(=O)C(Cc2ccccc2)NC(=O)[C@H]2CCC[C@H]2NC(=O)C(Cc2ccccc2)NC1=O (stereo partly specified) (cyclo([X27][ξF][ξW][ξK](Boc)[ξT](tBu)[ξF]))"
endpoint_result = "> 100 µM"

[[record]]
compound = "Cc1ccc(S(=O)(=O)N2CCN(S(=O)(=O)c3ccc(C)cc3)CCN(S(=O)(=O)c3ccc(C)cc3)Cc3cc(C#N)c(C#N)cc3CN(S(=O)(=O)c3ccc(C)cc3)CC2)cc1"
endpoint_result = "> 100 µM"

[[record]]
compound = "C=CCC(N[C@@H](CO)c1ccccc1)c1cn(Cc2ccccc2Cl)c(=O)n(Cc2ccccc2Cl)c1=O (stereo partly specified)"
endpoint_result = "> 100 µM"

[[record]]
compound = "COc1cc(C2S/C(=C/c3ccccc3)C(=O)N2c2ccc(NC(C)=O)cc2)cc(OC)c1OC (stereo unspecified)"
endpoint_result = "> 100 µM"


So what does the record say about TGI for COC(=O)/C(=N\NC(N)=O)C(C(=O)C(=O)Nc1ccccc1OC)c1nc2ccc([N+](=O)[O-])cc2[nH]c1=O (stereo unspecified) ?
> 100 µM

Similarly, CCc1c(CN)c(CC)c(CNC2=NCCN2)c(CC)c1CNC1=NCCN1 ?
> 100 µM

Quick one: COc1cccc2ccc(C(=O)c3ccccc3)nc12
> 100 µM

----------
Tested on: EKVX NSCLC
MEASUREMENT_PROTOCOL: NCI tumour cell line growth inhibition, 48 h
ATTRIBUTE_MEASURED: TGI

Which TGI value is on record for CSC1=Nc2c(c(C)c(-c3ccccc3)n2CCCN2CCCCC2)C2=NC(=O)C[C@H](C)N12 ?
> 44.7 µM

Entry CC(=O)Nc1ccc(NS(=O)(=O)c2ccc3nc(C)n(NS(=O)(=O)c4ccc(NC(C)=O)cc4)c(=O)c3c2)cc1 please
> 100 µM

Quick one: COc1cc2nccc(Oc3ccc(NC(=O)NC4CC4)c(Cl)c3)c2cc1C(N)=O
> 100 µM

----------
Tested on: UACC-62 melanoma
MEASUREMENT_PROTOCOL: NCI tumour cell line growth inhibition, 48 h
Quick reference: TGI of the listed items.

Known results for compounds:
[[record]]
compound = "N#Cc1cnc(-n2[nH]c3c(c2=O)CCCC3)[nH]c1=O"
target_desc = "UACC-62 melanoma"
endpoint_result = "> 100 µM"

[[record]]
compound = "O=c1cc(-c2ccccc2)oc2ccc(OC/C(=N/O)c3ccccc3)cc12"
target_desc = "UACC-62 melanoma"
endpoint_result = "> 50 µM"

[[record]]
compound = "COC(=O)c1c(C)cccc1C1CN=NC12Cc1ccccc1C2=O (centres undefined)"
target_desc = "UACC-62 melanoma"
endpoint_result = "> 100 µM"

[[record]]
compound = "COc1ccccc1C1C(Cl)C(=O)N1n1cnc2ccccc2c1=O (centres undefined)"
target_desc = "UACC-62 melanoma"
endpoint_result = "> 100 µM"

[[record]]
compound = "CC(=O)Nc1ccccc1-c1nc2ccccc2nc1C"
target_desc = "UACC-62 melanoma"
endpoint_result = "> 100 µM"

[[record]]
compound = "C=C1CC2CCCC12C=O (centres undefined)"
target_desc = "UACC-62 melanoma"
endpoint_result = "> 10 µM"


Please give the measured TGI for this compound: COc1cc(/C=C2/SC(c3ccccc3)N(Cc3ccccc3)C2=O)cc(OC)c1OC (centres undefined)
> 100 µM

Also need Nc1c(-c2cn(Cc3ccccc3)c3ccccc23)[n+]([O-])c2ccccc2[n+]1[O-] , thanks.
> 100 µM

Then CCOC(=O)CCC(NC(=O)Cc1ccc(Nc2nc3ccccc3nc2-c2cccs2)cc1)C(=O)OCC (centres undefined) ?
> 100 µM
